FYI, the data here is from PubChem BioAssay (NCI).

Please provide measured growth for the entries that follow.
test system: CAKI-1 renal; assay: NCI-60 one-dose screen, 48 h (100 = growth as untreated, 0 = no growth, -100 = all killed); conditions: 10 µM unless noted
This is part of a sample that, as a whole, favours compounds with a hit. Of some 83,000 tested, about 20% had one in any assay. Active and inactive are the calls of the source. The calls were made as follows: active = growth percent below 10; inactive = the rest.

Known results for compounds:
compound=CNC(=O)c1cc(Oc2cccc3nc(Nc4ccc(Oc5ccccc5)cc4)ccc23)ccn1 result="67.5% (inactive)"
compound=C=C1C(=O)O[C@H]2[C@H]1CC/C(C=Nc1c(N)cc(C(F)(F)F)cc1C(F)(F)F)=C\CC[C@@]1(C)O[C@@H]21 result="-59.3% (active)"
compound=Cc1cc(O)cc(-c2c(-c3ccnc(-c4cccnc4)c3)cnn2C)c1 result="42.3% (inactive)"
compound=COc1cc2ncnc(Nc3ccc(O)cc3)c2cc1OC result="43.4% (inactive)"
compound=Oc1ccc(C(c2ccc(O)cc2)C(Cl)(Cl)Cl)cc1 result="105% (inactive)"
compound=CC(C)(C)c1ccc(Cn2cc(CSc3nc4ccccc4s3)nn2)cc1 result="82.9% (inactive)"
compound=CCCCOc1nc2cc(Cl)ccc2cc1/C=C/c1cc(/C=C/c2cc3ccc(Cl)cc3nc2OCCCC)n(-c2ccccc2)n1 result="78.5% (inactive)"
compound="CC(=O)c1cnc2ccc(-c3cc(Cl)c(O)c(Cl)c3)nc2c1NC1CCC(CN(C)C)CC1 (centres undefined)" result="-49.4% [2.5 µM] (active)"

Now consider the entry below.
Tell me its growth given `Cc1c(N)ccc(-c2ccc(N)c(C)c2S(=O)(=O)O)c1S(=O)(=O)O` as the entry.
116% (inactive)

---

test system: 786-0 renal; assay: NCI-60 one-dose screen, 48 h; details: 10 µM unless noted
About 83,000 compounds went through this panel and 20% of them were active in at least one assay; those are over-represented in the sample as a whole. Activity calls are given as the source filed them. The calls were made as follows: active = growth percent below 10; inactive = the rest.
Select the matching outcome among active, inactive

molecule=O=C(NOCCO)c1cc(CN2OCCCC2=O)c(F)c(F)c1Nc1ccc(I)cc1F assigned_category=inactive
molecule="O=C(O)C1(Cc2cccc(Nc3nccs3)n2)CCC(Oc2cccc(Cl)c2F)CC1 (stereo not given)" assigned_category=inactive
molecule=COc1ccc(/C(C)=C(\c2ccc(Cl)cc2)c2ccc(OCCN3CCCCCC3)cc2)cc1 assigned_category=inactive
molecule="CC1(O)CCC(Nc2cc(-c3ccc(C(F)(F)F)cc3)c(C#N)c3nc4ccccc4n23)CC1 (stereo not given)" assigned_category=inactive
molecule=Cc1cc2c(-c3nc4ccccn4c3Nc3cccc4ccccc34)c(O)c(O)cc2c(O)c1-c1c(C)cc2c(-c3nc4ccccn4c3Nc3cccc4ccccc34)c(O)c(O)cc2c1O assigned_category=inactive

Given `Cc1cnc(Nc2ccc(OCCN3CCCC3)cc2)nc1Nc1cccc(S(=O)(=O)NC(C)(C)C)c1` , state the outcome it received in this test.
active

Please indicate how the test categorized `COc1ccc(C(=O)N2c3ccccc3Sc3ccccc32)c(F)c1` .
inactive

Kindly provide the recorded test outcome for the following molecule: `CCN1CCN(c2nc(C)cc(N(CCNc3ccnc4cc(Cl)ccc34)Cc3ccc4c(c3)OCO4)n2)CC1`
active

Lab log entry: `Cc1ccccc1Nc1nc2nonc2nc1Nc1cccc(C)c1C` — outcome as called in the assay?
inactive

Name the outcome recorded for `C/C(=C(/c1ccc(Cl)cc1)c1ccc(OCCN2CCCC2)cc1)c1ccccc1` in the assay.
inactive

---

tested on: OVCAR-8 ovarian; experiment: NCI-60 one-dose screen, 48 h; settings: 10 µM unless noted
Compounds without any hit were thinned out: in the full panel of roughly 83,000, 20% have a hit. Active and inactive are the calls of the source. Rule for the calls: active = growth percent below 10; inactive = the rest.
Mark one answer only. Choices: active, inactive

Would you please look over these solved cases?
molecule=CCN(CCN(C)C)C(=O)CNCc1cc(C(N)=O)ccn1 assigned_category=inactive
molecule=CC/C=C\C[C@H]1C/C=C2/C(=O)C=C[C@@H]2C/C=C\CCCC(=O)O1 assigned_category=active
molecule=O=C(c1ccc(/C=C/c2n[nH]c3ccccc23)cc1)N1CCNCC1 assigned_category=inactive
molecule=CN1CCN(CCCOc2cccc3nc(Nc4ccc(Cl)c(C(F)(F)F)c4)ccc23)CC1 assigned_category=inactive
molecule=CN(C)C/C=C/C(=O)Nc1cc2c(Nc3ccc(F)c(Cl)c3)ncnc2cc1O[C@H]1CCOC1 assigned_category=active

Record request — test call for `Cc1ccc(-c2cc3c(SCC(=O)Nc4cc(C(F)(F)F)ccc4Cl)nccn3n2)cc1`
inactive

What call does the record list for `Cc1cc(C)n(CC(=O)Nc2ccc(-c3nc4ccccc4s3)cc2)n1` ?
inactive

Short answer needed: outcome of this test for `COc1ccc(-c2ccc3ncc4c(c3c2)n(-c2ccc(N3CCNCC3)c(C(F)(F)F)c2)c(=O)n4C)cn1` ?
active

Lab log entry: `O=C1NC(=O)[C@@H](c2cn3c4c(cccc24)CCC3)[C@@H]1c1c[nH]c2ccccc12` — outcome as called in the assay?
inactive

Recorded call for `CCOC(=O)Sc1ncnc2nc[nH]c12` ?
inactive

What classification did `CC(=O)O[C@]1(C)C[C@H](O)[C@]2(O)C=CO[C@H](O[C@@H]3O[C@H](CO)[C@@H](O)[C@H](O)[C@H]3O)[C@@H]21` end up with in this test?
inactive

What did the test return for `O=C(Nc1ccc(N=Nc2ccccc2)cc1)c1cccc2ccccc12` ?
inactive

Give the logged outcome of this assay for the following molecule: Clc1ccc(C(Cn2ccnc2)OCc2ccsc2Cl)c(Cl)c1 (stereo unspecified)
inactive

Returns: the outcome recorded for Cc1ccsc1C(NC(=O)c1ccccc1)c1cc(Cl)c2cccnc2c1O (stereo unspecified) in this assay.
active

Which outcome was entered for the molecule `Cc1nc(N)sc1-c1ccnc(Nc2ccc(N3CCOCC3)cc2)n1` in this test?
inactive

Answer briefly: the call reported for `C[C@H]1Oc2cc(cnc2N)-c2c(nn(C)c2C#N)CN(C)C(=O)c2ccc(F)cc21` in this assay.
inactive

Tell me the assay call for `CN(C)CCn1c(=O)c2c3cc4c(cc3n(CCN(C)C)c2c2ccc(Cl)cc21)OCO4` please.
inactive

Per the records of this test, what outcome belongs to `CC1(COc2ccc3c(c2)ncn3-c2ccc3cccc(N4CCC(N)CC4)c3n2)COC1` ?
active

Per the records of this test, what outcome belongs to `Cc1ccc(-n2nc(C(C)(C)C)cc2NC(=O)NCc2cc(F)ccc2Oc2ccc3c(cnn3CCO)c2)cc1` ?
inactive

---

test system: MALME-3M melanoma; assay: NCI-60 one-dose screen, 48 h; conditions: 10 µM unless noted
About 83,000 compounds went through this panel and 20% of them were active in at least one assay; those are over-represented in the sample as a whole. The source made the active and inactive calls. How the source made its calls: active means growth percent below 10; inactive means the rest.
Thanks in advance; please answer with one of these: active, inactive

Completed entries (count: 3):
compound=C[C@@H](NC(=O)c1ncnc(N)c1Cl)c1ncc(C(=O)Nc2cc(C(F)(F)F)c(Cl)cn2)s1 assigned_category=active
compound=COc1cc(CCc2cc(NC(=O)c3ccc(N4C[C@@H](C)N[C@@H](C)C4)cc3)n[nH]2)cc(OC)c1 assigned_category=inactive
compound=COc1cc2cc(NCc3ccc(F)cc3)nc(C)c2cc1OC assigned_category=inactive

Entry O=C1CC(c2ccc3c(c2)OCO3)c2ncn(-c3ccc(Cl)cc3)c2N1 (centres undefined) : call = ?
inactive

Lab log entry: `O=C(NOCCO)c1ccc2cncn2c1Nc1ccc(I)cc1F` — outcome as called in the assay?
active

---

test system: NCI-H460 lung; assay: NCI-60 one-dose screen, 48 h (100 = growth as untreated, 0 = no growth, -100 = all killed); conditions: 10 µM unless noted
This is part of a sample that, as a whole, favours compounds with a hit. Of some 83,000 tested, about 20% had one in any assay.
Just a reminder that ties go to -1: only growth strictly below 50% counts as 1.

Solved cases below.
compound="Cc1ccsc1C(NC(=O)c1ccccc1)c1cc(Cl)c2cccnc2c1O (stereo unspecified)" assigned_category=1
compound=COc1cc(OC)c(/C=C/S(=O)(=O)Cc2ccc(OC)c(NCC(=O)O)c2)c(OC)c1 assigned_category=1
compound=CNC(=O)c1cc(Oc2cccc3nc(Nc4ccc(Oc5ccccc5)cc4)ccc23)ccn1 assigned_category=-1
compound=Cn1cc(-c2ncnc3ccc(-c4cnc(Cl)c(NS(C)(=O)=O)c4)cc23)c2ccccc21 assigned_category=1

From here, focus on the item given below.
Criterion: growth strictly below 50%. Is it met by `Nc1c(Cl)cccc1[N+](=O)[O-]` ?
-1

---

test system: RXF 393 renal; assay: NCI-60 one-dose screen, 48 h (100 = growth as untreated, 0 = no growth, -100 = all killed); conditions: 10 µM unless noted
This is part of a sample that, as a whole, favours compounds with a hit. Of some 83,000 tested, about 20% had one in any assay.
recorded_metric: growth (%)
Answers are plain numbers, in %.

Completed entries (count: 8):
molecule=Cc1ncc(-c2ccnc(Nc3ccc(S(C)(=O)=O)cc3)n2)n1C(C)C recorded_number=-50.9
molecule=Nc1ncnc2c1ccn2-c1cccc(NC(=O)c2ccc(N3CCOCC3)c(C(F)(F)F)c2)c1 recorded_number=19.4
molecule=COc1cc2nccc(Oc3ccc(NC(=O)Nc4cc(C)on4)c(Cl)c3)c2cc1OC recorded_number=-28.9
molecule=C/C(=C(/c1ccc(Cl)cc1)c1ccc(OCCN2CCCC2)cc1)c1ccccc1 recorded_number=66.6
molecule="COC(=O)CNC(=O)[C@@H](OC)[C@@H]1Cc2cc3cc(OC4CC(OC5CC(O)C(O)C(C)O5)C(O)C(C)O4)c(C)c(O)c3c(O)c2C(=O)[C@H]1OC1CC(OC2CC(OC3CC(C)(O)C(O)C(C)O3)C(O)C(C)O2)C(O)C(C)O1 (stereo partly specified)" recorded_number=-75.4
molecule=CC(=O)Oc1ccccc1C(=O)N=C1[Se]CCN1C(=O)c1ccccc1OC(C)=O recorded_number=-72.5
molecule=CN(C)CCn1c(=O)c2c3cc4c(cc3n(CCN(C)C)c2c2ccc(Cl)cc21)OCO4 recorded_number=57.9
molecule=COCCN1CCN(Cc2ccc(-c3n[nH]c4c3C(=O)c3c(NC(=O)NN5CCOCC5)cccc3-4)cc2)CC1 recorded_number=-87.4

Batch request: growth for each of the following molecules.
1. Cc1cnc(NC(=O)Nc2cc(Br)c(C)cc2OC[C@@H]2CNCCO2)cn1
2. N#Cc1cc2[nH]c3ccc(OC(F)(F)F)cc3c2oc1=O
3. CC[C@H](Nc1ncnc2nc[nH]c12)c1nc2cccc(F)c2c(=O)n1-c1ccccc1
4. CCN(CCCOc1ccc2c(Nc3cc(CC(=O)Nc4cccc(F)c4)[nH]n3)ncnc2c1)CCOP(=O)(O)O
5. O=c1sn(-c2cccc3ccccc23)c(=O)n1Cc1ccccc1
6. CO[C@H]1C[C@@H]2CC[C@@H](C)[C@@](O)(O2)C(=O)C(=O)N2CCCC[C@H]2C(=O)O[C@H]([C@H](C)C[C@@H]2CC[C@@H](OC(=O)C(C)(CO)CO)[C@H](OC)C2)CC(=O)[C@H](C)/C=C(\C)[C@@H](O)[C@@H](OC)C(=O)[C@H](C)C[C@H](C)\C=C/C=C/C=C/1C
7. Nc1cc(C(F)(F)F)c(-c2cc(N3CCOCC3)nc(N3CCOCC3)n2)cn1
8. COc1cnc2c(c1)C(=O)c1c-2n(CCCn2ccnc2)c(=O)c2cc(Cl)ccc12

1: -14.8; 2: 76.8; 3: 2.02; 4: 96.7; 5: 99.3; 6: -16.3; 7: -39.7; 8: -33.6
